test: in vitro; settings: hepatocytes
// reported hepatocyte CLint for each item listed
State just the number; it will be interpreted in µL/min/1e6 cells.

| compound | hepatocyte CLint [µL/min/1e6 cells] |
| --- | --- |
| COc1ccc(CNCc2cccc(CCNC[C@H](O)c3ccc(O)c4[nH]c(=O)sc34)c2)cc1 | 13 |
| Cc1ccccc1-n1c(Cn2nc(-c3ccc(O)c(F)c3)c3c(N)ncnc32)nc2cccc(C)c2c1=O | 44.7 |
| O=c1[nH]c2ccccc2n1C1CCN(Cc2ccc(-c3nc4ccccc4cc3-c3ccccc3)cc2)CC1 | 35.5 |
| CN1CCN(CCOc2n[nH]c3ncnc(Nc4ccc(OCc5ccccn5)c(Cl)c4)c23)CC1 | 13.5 |

Problem: Recall and state the measured hepatocyte CLint for CC(=O)Nc1nc(CCc2ccc(NC(=N)N)cc2)cs1 .
Result: 12.9

Problem: Recall and state the measured hepatocyte CLint for Cc1oc(=O)oc1CN1CCN(c2cc3c(cc2F)c(=O)c(C(=O)O)c2n3C(C)S2)CC1 (stereo unspecified) [PRULIFLOXACIN] .
Result: 69.2

Problem: Recall and state the measured hepatocyte CLint for CC(=O)Nc1ccc2c(c1)c(-c1cc(NC3CC3)n3ncc(C#N)c3n1)cn2CCCO .
Result: 12.3

Problem: Recall and state the measured hepatocyte CLint for CS(=O)(=O)c1ccc(-c2cnc(N)c(C(=O)Nc3ccccc3)n2)cc1 .
Result: 19.1

Problem: Recall and state the measured hepatocyte CLint for NC1(c2ccc(-c3ncc4nccn4c3-c3ccccc3)cc2)CCC1 .
Result: 16.2

Problem: Recall and state the measured hepatocyte CLint for C[C@@H]1CN(Cc2cc(Cl)ccc2OCC(=O)O)CCN1S(=O)(=O)c1ccccc1 .
Result: 7.48

Problem: Recall and state the measured hepatocyte CLint for Cc1cn([C@H]2CCCN([C@H](CC(C)(C)C)c3ccc(C(=O)O)c(Oc4cccc(Br)c4)c3)C2)c(=O)[nH]c1=O .
Result: 49

---

assay: physchem; conditions: octan-1-ol/water, pH 7.4, LogD7.4
measurement_label: logD
Give the figure by itself; no unit, no explanation.

A selection of reference data follows.
| smiles_repr | experimental_value |
| --- | --- |
| CC[C@@H](CO)Nc1nc(SCc2ccccc2)nc2nc(N)sc12 | 2.99 |
| O=c1[nH]c2cc(Cl)ccc2c(O)c1-c1cccc(Oc2ccccc2)c1 | 2.96 |
| CN[C@@H](C)C(=O)N[C@H](C(=O)N[C@H]1CCN(CCc2ccccc2)C1)C1CCCCC1 | 1.65 |

Problem: Recall and state the measured logD for O=C(Nc1ccccc1O)c1cc([N+](=O)[O-])ccc1Cl .
Result: 2.49

---

// reported pKa for each item listed
experiment: physchem
Give the figure by itself; no unit, no explanation.

A selection of reference data follows.
| molecule | pKa |
| --- | --- |
| CN(C)CCn1nnnc1SCC1=C(C(=O)O)N2C(=O)[C@@H](NC(=O)Cc3csc(N)n3)[C@H]2SC1 | 8.18 |
| CCNC(=O)C[C@@H]1N=C(c2ccc(Cl)cc2)c2cc(OC)ccc2-n2c(C)nnc21 | 2.1 |
| O=C(NS(=O)(=O)c1ccc(F)cc1)N1CCC(N2CCC(Oc3ccc(Cl)c(Cl)c3)CC2)CC1 | 8.45 |
| O=C(NS(=O)(=O)c1ccccc1)N1CCC(N2CCC(Oc3ccc(Cl)c(Cl)c3)CC2)CC1 | 8.1 |
| CCOC(=O)N1CCC(Nc2ccccn2)CC1 | 6.6 |

Moving on to the next molecule.
Problem: Recall and state the measured pKa for CN(C)CCn1cnc2c1c(=O)n(C)c(=O)n2C .
Result: 7.5

---

conditions: buffer, pH 7.4
Mark yes (1) only when LogD7.4 stays strictly below 2. Values equal to the cut-off are no (0).

| molecule | class_assignment |
| --- | --- |
| CC(CN(C)C)CN1c2ccccc2CCc2ccccc21 (stereo not given) [TRIMIPRAMINE] | no (0) |
| Cc1cc(N(C)S(C)(=O)=O)ccc1-c1cc(C(F)(F)F)ccc1OCC(=O)O | yes (1) |
| CCS(=O)(=O)c1ccc(-c2cc(Cl)ccc2OCC(=O)O)c(C)c1 | yes (1) |
| CC(CCc1ccccc1)NCC(O)c1ccc(O)c(C(N)=O)c1 (stereo not given) [LABETALOL] | yes (1) |

Proceed to the following item.
Problem: Please indicate whether the reported LogD7.4 of CC1(C)NC(=O)N(c2ccc([N+](=O)[O-])c(C(F)(F)F)c2)C1=O [NILUTAMIDE] is strictly below 2.
Result: yes (1)

---

assay: physchem; conditions: octan-1-ol/water, pH 7.4, LogD7.4
Label 1 when logD >= 2; otherwise 0.

| smiles_repr | class_assignment |
| --- | --- |
| COc1ccc2ncc(=O)n(CCN3CC[C@@H](NCc4ccc5c(n4)NC(=O)CO5)[C@@H](O)C3)c2c1 | 0 |
| COc1cc(Nc2nc(N[C@@H](C)c3ncc(F)cn3)ncc2Br)n[nH]1 | 1 |
| COc1cc2ncnc(Nc3ccncc3)c2cc1OC | 1 |
| Nc1ccc(S(=O)(=O)c2ccc(N)cc2)cc1 | 0 |
| CC(C)N1CCO[C@@H](CN2CCN(C(=O)Nc3ccc(Cl)c(Cl)c3)CC2)C1 | 1 |

Proceed to the following item.
Problem: Please indicate if the recorded logD for FC(F)(F)c1nnc2ccc(-n3ccnc3)nn12 meets or exceeds 2.
Result: 0

---

// reported logD for each item listed
assay: physchem; settings: octan-1-ol/water, pH 7.4, LogD7.4
Give the figure by itself; no unit, no explanation.

A selection of reference data follows.
| smiles_repr | logD |
| --- | --- |
| CCc1cccc2c(C#N)cn(CC(=O)NCCOC)c12 | 1.95 |
| N#Cc1ccc(C(F)(F)F)nc1O[C@H](CCN)c1ccno1 | -0.49 |
| Cc1cc(Nc2nc(N[C@@H](C)c3ncc(F)cn3)ncc2C)n[nH]1 | 1.75 |
| C=CCN(C(=O)NCc1ccc(OC)cc1)C1CCN(CCC(c2ccccc2)c2ccccc2)CC1 | 3.6 |

Problem: Recall and state the measured logD for Cn1c(C(=O)O)c(CCCOc2cccc3ccccc23)c2ccccc21 .
Result: 2.99

---

// reported log10 solubility thermodynamic for each item listed
assay: physchem; conditions: pH 7.4 buffer
Remember, log10 of solubility thermodynamic, in µM.

A selection of reference data follows.
| smiles_repr | log10 solubility thermodynamic |
| --- | --- |
| O=C(Nc1ccc(F)cc1)c1ccc(Cl)[n+]([O-])c1 | 2.55 |
| O=C(c1ccc(F)cc1)C1CCN(C(=O)NCc2ccccc2)CC1 | 1.00 |
| O=c1cc(-c2ccc(O)cc2)oc2cc(O)ccc12 | 0.36 |
| CC(=O)Nc1ccc(Br)cc1 | 2.92 |
| O=S(=O)(c1ccc(F)cc1)N1CCCN(c2nccc(C(F)(F)F)n2)CC1 | -0.05 |
| O=C(Nc1ccccc1C(F)(F)F)N1CCN(c2ccccn2)CC1 | 2.28 |

Moving on to the next molecule.
Problem: Recall and state the measured log10 solubility thermodynamic for Cn1c(=O)n(Cc2ccc(C(=O)O)cc2)c(=O)c2cc(C#CCc3ccccc3)ccc21 .
Result: 0.48

---

test: in vitro; conditions: human, plasma, PPB
// reported fraction unbound at 5 h for each item listed
Give the figure by itself; no unit, no explanation.

A selection of reference data follows.
| molecule | fraction unbound at 5 h |
| --- | --- |
| O=C(Nc1ccccc1Cl)c1cc[nH]n1 | 0.0661 |
| COc1cc2ncc(C(N)=O)c(Nc3ccc(F)cc3F)c2cc1N1CCN(C)CC1 | 0.253 |

Problem: Recall and state the measured fraction unbound at 5 h for C[S+]([O-])Cc1ccc(C(=O)Nc2ccc(OCCOCCO)nc2C(=O)NCC2CCC2)c2ccccc12 (stereo unspecified) .
Result: 0.0499

Problem: Recall and state the measured fraction unbound at 5 h for C1CCC(C(CC2CCCCN2)C2CCCCC2)CC1 (stereo unspecified) .
Result: 0.0156

Problem: Recall and state the measured fraction unbound at 5 h for O=C(NCc1ccc(OC(F)(F)F)cc1)C1c2ccccc2C(=O)N1C1CCOCC1 (stereo unspecified) .
Result: 0.0948

Problem: Recall and state the measured fraction unbound at 5 h for COc1cc(OC)c(S(=O)(=O)N(C)c2ccccc2)cc1NC(C)=O .
Result: 0.179

---

// reported hepatocyte CLint for each item listed
test: in vitro; details: hepatocytes
Residues, ends and D or L forms follow the SMILES beside them.

A selection of reference data follows.
| compound | hepatocyte CLint |
| --- | --- |
| CCCCCCCC(=O)N[C@@H](CCN)C(=O)N[C@H](C(=O)N[C@@H](CCN)C(=O)N[C@H]1CCNC(=O)[C@H](C)NC(=O)[C@H](CCN)NC(=O)[C@H](CCN)NC(=O)[C@H](CC(C)C)NC(=O)[C@@H](Cc2ccccc2)NC(=O)[C@H](CCN)NC1=O)[C@@H](C)O (HELM PEPTIDE1{[CCCCCCCC(=O)[*:2]].[Dab].T.[Dab].[Dab].[Dab].[dF].L.[Dab].[Dab].A}$PEPTIDE1,PEPTIDE1,5:R3-11:R2$$$V2.0) | < 3 µL/min/1e6 cells |
| COC(=O)C1=C(C)NC(C)=C(C(=O)OC(C)C)[C@@H]1c1cccc2nonc12 [(R)-ISRADIPINE] | > 150 µL/min/1e6 cells |
| O=C(Nc1nc2ccccc2[nH]1)c1ccccc1 | > 150 µL/min/1e6 cells |
| O=C(O)Cc1ccccc1N1CCC(CN2CCC(Oc3ccc(Cl)c(Cl)c3)CC2)CC1 | < 3 µL/min/1e6 cells |
| CCCCN(CCNCCc1ccc(O)c2[nH]c(=O)sc12)C(=O)CCOCCc1ccccc1 | > 150 µL/min/1e6 cells |

Problem: Recall and state the measured hepatocyte CLint for O=C(NCC1(O)CCCCCC1)c1cc(-n2ncc(=O)[nH]c2=O)ccc1Cl .
Result: < 3 µL/min/1e6 cells

Each recorded value in this set is attributed to ChEMBL document CHEMBL3301361.
